Organism: Rattus norvegicus
Test: Open TG-GATES - Regimen: Single
Format: toxicity, organism-based, Sprague-Dawley
Set-up: regimen Single, gender Male, age 6 weeks
Details: in vivo, po, 0 mg/kg, 3 h, tissue Plasma, route gavage, dose level Control
Endpoint Name: AST (IU/L)
Answer in IU/L, number only, no unit symbol.

Would you mind telling me what AST value was observed for COc1cc([C@@H]2c3cc4c(cc3[C@@H](O[C@@H]3O[C@@H]5CO[C@@H](C)O[C@H]5[C@H](O)[C@H]3O)[C@H]3COC(=O)[C@H]23)OCO4)cc(OC)c1O [ETOPOSIDE] ? 67.6

Which measured AST value corresponds to Cc1cccc(Nc2ccccc2C(=O)O)c1C [MEFENAMIC ACID] ? 67

Give its AST value. Item: CN(C)[C@@H]1C(O)=C(C(N)=O)C(=O)[C@@]2(O)C(O)=C3C(=O)c4c(O)cccc4[C@@](C)(O)[C@H]3C[C@@H]12 [TETRACYCLINE] 70.8

Further cases:
Look up AST: CC(=O)Nc1nnc(S(N)(=O)=O)s1 [ACETAZOLAMIDE] 80.2

Quick one: AST of CN1C(C(=O)Nc2ccccn2)=C(O)c2sc(Cl)cc2S1(=O)=O [LORNOXICAM] ? 73

I am curious: what AST value has been reported for CCOC(=O)[C@H](CCc1ccccc1)N[C@@H](C)C(=O)N1CCC[C@H]1C(=O)O ? 66.2

May I ask what AST has been recorded for Clc1c(Cl)c(Cl)c(Cl)c(Cl)c1Cl [PERCHLOROBENZENE] ? 78

Give its AST value. Item: C#C[C@]1(O)CC[C@H]2[C@@H]3CCC4=Cc5oncc5C[C@]4(C)[C@H]3CC[C@@]21C [DANAZOL] 78.2

Tell me the measured AST of C1CCC(C(CC2CCCCN2)C2CCCCC2)CC1 (stereo not given) [PERHEXILINE] , please. 70.8

Given the molecule CC(CN1c2ccccc2Sc2ccccc21)N(C)C (stereo not given) [PROMETHAZINE] , what is its reported AST? 76
